// pIC50 lookup, one value per entry
- Tested on: Delta-type opioid receptor (Homo sapiens, UniProt P41143)
- Sequence (P41143 whole entry): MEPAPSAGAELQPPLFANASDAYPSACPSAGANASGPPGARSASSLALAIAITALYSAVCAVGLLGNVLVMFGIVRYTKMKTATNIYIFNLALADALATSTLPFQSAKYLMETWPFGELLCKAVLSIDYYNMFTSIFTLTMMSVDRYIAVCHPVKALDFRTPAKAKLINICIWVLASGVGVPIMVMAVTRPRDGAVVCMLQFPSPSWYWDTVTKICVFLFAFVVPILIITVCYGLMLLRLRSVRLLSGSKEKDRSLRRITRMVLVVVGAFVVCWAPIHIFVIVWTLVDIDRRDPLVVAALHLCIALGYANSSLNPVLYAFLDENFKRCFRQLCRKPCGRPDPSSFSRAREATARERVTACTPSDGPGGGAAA
- Protocol text: DOR antagonists, SAR follow-up, image-based (AID 2357)
Keep it numeric: pIC50 is minus log10 of the concentration in mol/L.

Oc1ccc(CN=Nc2ccnc3cc(Cl)ccc23)cc1O = 4.72

Now, please, on to the next compound.
Inquiry: Consider the compound CCC(N=Nc1ccnc2cc(Cl)ccc12)c1ccc(O)cc1 (configuration not stated) . State its measured pIC50.
Reply text: 4.49
